biological target: IGF-1R (Homo sapiens, UniProt P08069); construct: Cultivated human tumour cells which express the IGF1 receptor (IGF1R); endogenous in cells; assay: Inhibition of IGF-1R (IC50): IGF1-stimulated IGF1R autophosphorylation in human tumour cells, Capture-ELISA or LUMINEX; conditions: Table 1; human tumour cells expressing IGF1R (for example MCF-7 or Calu-6), 45 min pre-treatment, 5 min IGF1 stimulation
Sequence (P08069 31-1367): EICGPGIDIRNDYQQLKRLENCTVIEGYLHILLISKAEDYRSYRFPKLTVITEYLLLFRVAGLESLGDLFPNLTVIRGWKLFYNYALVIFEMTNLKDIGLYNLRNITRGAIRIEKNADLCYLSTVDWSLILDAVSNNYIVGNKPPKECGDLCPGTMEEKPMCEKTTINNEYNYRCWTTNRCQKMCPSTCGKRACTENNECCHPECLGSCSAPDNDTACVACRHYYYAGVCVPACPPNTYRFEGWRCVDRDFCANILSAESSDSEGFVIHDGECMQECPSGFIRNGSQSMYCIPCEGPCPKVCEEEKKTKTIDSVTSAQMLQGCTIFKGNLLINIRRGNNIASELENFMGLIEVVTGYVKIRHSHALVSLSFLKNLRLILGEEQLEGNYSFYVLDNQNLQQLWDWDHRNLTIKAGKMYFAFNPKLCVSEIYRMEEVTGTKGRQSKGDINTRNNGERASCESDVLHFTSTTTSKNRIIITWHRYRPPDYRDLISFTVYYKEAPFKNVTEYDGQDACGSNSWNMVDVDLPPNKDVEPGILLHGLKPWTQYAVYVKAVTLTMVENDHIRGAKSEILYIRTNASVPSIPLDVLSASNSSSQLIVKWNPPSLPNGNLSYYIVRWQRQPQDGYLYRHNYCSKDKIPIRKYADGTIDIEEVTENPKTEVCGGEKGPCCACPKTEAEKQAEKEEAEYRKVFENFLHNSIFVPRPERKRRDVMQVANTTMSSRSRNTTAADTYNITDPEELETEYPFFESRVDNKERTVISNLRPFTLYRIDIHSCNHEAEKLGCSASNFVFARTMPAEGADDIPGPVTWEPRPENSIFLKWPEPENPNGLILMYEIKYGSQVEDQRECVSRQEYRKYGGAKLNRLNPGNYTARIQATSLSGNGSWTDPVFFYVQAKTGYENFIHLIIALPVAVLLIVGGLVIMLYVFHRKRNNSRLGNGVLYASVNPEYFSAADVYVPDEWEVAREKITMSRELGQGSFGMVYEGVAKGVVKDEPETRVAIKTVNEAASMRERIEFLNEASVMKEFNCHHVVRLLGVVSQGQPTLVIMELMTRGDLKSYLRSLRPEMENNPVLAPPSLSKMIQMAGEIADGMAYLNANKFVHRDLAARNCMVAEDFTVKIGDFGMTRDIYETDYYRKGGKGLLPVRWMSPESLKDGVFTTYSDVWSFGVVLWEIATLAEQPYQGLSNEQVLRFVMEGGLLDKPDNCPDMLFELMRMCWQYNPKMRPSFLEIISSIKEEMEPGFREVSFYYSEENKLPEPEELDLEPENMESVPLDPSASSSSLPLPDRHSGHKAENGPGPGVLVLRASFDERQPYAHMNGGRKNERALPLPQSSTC
pIC50: −log10 of the molar value.
ASSAY_READOUT: pIC50

P = Cc1cc(Nc2nccc(Nc3ccc(C(=O)c4cccc5cc[nH]c45)cc3)n2)n[nH]1
Q = O=C(c1ccc(Nc2ccnc(Cl)n2)cc1)c1cccc2c1NCC2
R = O=C(c1ccc(Nc2ccnc(Nc3cc(-c4ccco4)[nH]n3)n2)cc1)c1cccc2cc[nH]c12
Qu. # rank by pIC50, ascending (min first) Please, when replying, give the labels in the order that was requested.
Ans. R, Q, P
(R: 4.82, Q: 5.11, P: 5.54)

I = N#CCCNc1nccc(Nc2ccc(C(=O)c3cccc4cc[nH]c34)cc2)n1
II = CC(C)(C)c1cc(Nc2nccc(Nc3ccc(C(=O)c4cccc5cc[nH]c45)cc3)n2)n[nH]1
Qu. Given I and II , report the one with the higher recorded pIC50. Give the label of your selection.
Ans. I
(I: 5.51, II: 4.92)

I = COc1cc(Nc2nccc(Nc3ccc(C(=O)c4cccc5cc[nH]c45)cc3)n2)cc(OC)c1OC
II = O=C(c1ccc(Nc2ccnc(Nc3ncc[nH]3)n2)cc1)c1cccc2cc[nH]c12
Qu. Just tell me: smaller pIC50 value, I or II ? Lab log: write the label of the selected item as the result.
Ans. I

A = O=C(c1ccc(Nc2ccnc(Cl)n2)cc1)c1cccc2cc[nH]c12
B = O=C(c1ccc(Nc2ccnc(NCC3CC(O)C3)n2)cc1)c1cccc2cc[nH]c12 (stereo not drawn)
C = O=C(c1ccc(Nc2ccnc(Nc3cc(-c4ccccc4)[nH]n3)n2)cc1)c1cccc2cc[nH]c12
D = N#Cc1c[nH]c2c(C(=O)c3ccc(Nc4ccnc(Nc5ccc(C(=O)c6cccc7c(C#N)c[nH]c67)cc5)n4)cc3)cccc12
Qu. Rank items: key pIC50, increasing. To answer, write out the labels according to the requested order.
Ans. C, A, B, D

---

target: IGF-1R (Homo sapiens); construct: Cultivated human tumour cells which express the IGF1 receptor (IGF1R); endogenous in cells; experiment: Inhibition of IGF-1R (IC50): IGF1-stimulated IGF1R autophosphorylation in human tumour cells, Capture-ELISA or LUMINEX; conditions: Table 1; human tumour cells expressing IGF1R (for example MCF-7 or Calu-6), 45 min pre-treatment, 5 min IGF1 stimulation
pIC50: −log10 of the molar value.
ASSAY_READOUT: pIC50

Qu. Look up pIC50 for this compound: O=C(c1ccc(Nc2ccnc(Nc3ccc(C(=O)c4cccc5cc[nH]c45)cc3)n2)cc1)c1cccc2cc[nH]c12
Ans. 5.74

Qu. # get_value(readout='pIC50', item= O=C(c1ccc(Nc2ccnc(Nc3cc[nH]n3)n2)cc1)c1cccc2cc[nH]c12 )
Ans. 5.62

P = O=C(c1ccc(Nc2nccc(NCc3cccnc3)n2)cc1)c1cccc2c1NCC2
Q = O=C(c1c[nH]nc1Nc1nccc(Nc2cnc3ccccc3c2)n1)c1cccc2cc[nH]c12
Qu. For this pair, P and Q , which shows a numerically higher pIC50? Write the label of whichever entry you select.
Ans. Q
(Q: 6.20, P: 5.62)
